target: C-CBL (residues 46-435) (Homo sapiens); construct: Purified CBL-B (residues 36-427) and C-CBL (residues 46-435) proteins from baculovirus-infected insect cells; made in house; host or cells: baculovirus-infected insect cells; test: Ligand Displacement Assay (LDA), HTRF competitive binding against BODIPY-labeled fluorescent tracer, C-CBL; details: geometric mean of the number of tests, read-out: C-CBL Ki (nM) GMean
Quantity measured: Ki (nM)

Molecule: C[C@H](c1nc(C(F)(F)F)cc2c(-c3cccc([C@H](c4nncn4C)C4CCC4)c3)n[nH]c12)N1CC(C)(O)C1 (single isomer, unassigned)
Value units: nM
Observed value: 78.5

Molecule: C[C@H]1CN(Cc2nc(C(F)(F)F)cc3c(-c4cccc(C5(Cc6nncn6C)COC5)c4)n[nH]c23)CCO1
Value units: nM
Observed value: 82.4

Molecule: Cn1cnnc1CC1(c2cccc(-c3n[nH]c4c(CN[C@@H]5CCC(F)(F)C5)nc(C(F)(F)F)cc34)c2)COC1
Value units: nM
Observed value: 57.5

Molecule: CC(NC(=O)[C@@H](C)O)c1nc(C(F)(F)F)cc2c(-c3cccc([C@H](c4nncn4C)C4CCC4)c3)n[nH]c12 (single isomer, unassigned) [Example I5]
Value units: nM
Observed value: 22.9

Molecule: C[C@H](CO)c1nc(C(F)(F)F)cc2c(-c3cccc([C@H](c4nncn4C)C4CCC4)c3)n[nH]c12 (single isomer, unassigned)
Value units: nM
Observed value: 96.5

Molecule: Cc1nccc2c(-c3cccc([C@H](c4nncn4C)C4CCC4)c3)n[nH]c12
Value units: nM
Observed value: 767

Molecule: CN1CCC(Oc2nc(C(F)(F)F)cc3c(-c4cccc(C5(Cc6nncn6C)COC5)c4)n[nH]c23)C1 (stereo in doubt)
Value units: nM
Observed value: 76.6

Molecule: C[C@H](CO)N[C@H](C)c1nc(C(F)(F)F)cc2c(-c3cccc([C@H](c4nncn4C)C4CCC4)c3)n[nH]c12 (single isomer, unassigned)
Value units: nM
Observed value: 25

Molecule: C[C@@H](CO)c1nc(C(F)(F)F)cc2c(-c3cccc([C@H](c4nncn4C)C4CCC4)c3)n[nH]c12 (single isomer, unassigned)
Value units: nM
Observed value: 156

Molecule: C[C@H]1CN(Cc2nc(C(F)(F)F)cc3c(-c4cccc([C@H](c5nncn5C)C5CCC5)c4)n[nH]c23)CCO1
Value units: nM
Observed value: 256

Molecule: CC(NC1CCC1)c1nc(C2CC2)cc2c(-c3cccc(C4(Cc5nncn5C)COC4)c3)n[nH]c12 (single isomer, unassigned) [Example H3]
Value units: nM
Observed value: 28.8

Molecule: C[C@H](c1nc(C(F)(F)F)cc2c(-c3cccc(C4(Cc5nncn5C)COC4)c3)n[nH]c12)N1CCNCC1 (single isomer, unassigned)
Value units: nM
Observed value: 80

Molecule: C[C@@H](N[C@H]1COC[C@H]1O)c1nc(C(F)(F)F)cc2c(-c3cccc([C@H](c4nncn4C)C4CCC4)c3)n[nH]c12 (single isomer, unassigned)
Value units: nM
Observed value: 173

Molecule: Cn1cnnc1[C@@H](c1cccc(-c2n[nH]c3c(CN4CCCC4)nc(C(F)(F)F)cc23)c1)C1CCC1
Value units: nM
Observed value: 192

Molecule: C[C@H](N[C@@H]1COC[C@H]1O)c1nc(C(F)(F)F)cc2c(-c3cccc([C@H](c4nncn4C)C4CCC4)c3)n[nH]c12 (single isomer, unassigned)
Value units: nM
Observed value: 26.6

Molecule: CC(CN)c1nc(C(F)(F)F)cc2c(-c3cccc(C4(Cc5nncn5C)COC4)c3)n[nH]c12 (single isomer, unassigned) [Example K7]
Value units: nM
Observed value: 97.8
